I'd appreciate it if you could supply polymerase ribozyme fitness (log ratio) values for the items below.
B1: TPR t1 (parent)
chain: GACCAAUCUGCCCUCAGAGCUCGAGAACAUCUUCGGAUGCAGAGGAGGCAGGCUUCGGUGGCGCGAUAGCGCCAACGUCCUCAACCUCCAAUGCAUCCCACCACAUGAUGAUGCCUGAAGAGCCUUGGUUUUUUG

Variants of: B1
METHOD_DESCRIPTION: polymerase ribozyme fitness, log enrichment relative to wild type (log ratio); higher = more active; in vitro selection for triplet polymerase activity
Numbers only.

Consider the following items and state reported polymerase ribozyme fitness (log ratio) for each.
1. A16G G69C A84G C102A C114U C115A
2. G63A A90U
3. G17C A29G C72A

[-6.44, -3.43, -5.8]

Field: polymerase ribozyme fitness (log ratio). Fill in for each record below.
1. G44U C49A G77U G120C U130G
2. G19A A43U
3. C56U C88U

1: -2.08; 2: -2.7; 3: -0.153

Quick request: polymerase ribozyme fitness (log ratio) for each listed item, please.
1. G39A A111C
2. A2C C72U G120U
3. C13U U30C C56U A121C U130G

-0.291
-2.42
-1.57

For every item below, please supply its polymerase ribozyme fitness (log ratio).
1. C4U C13G C15A G19A A90C C115U A119G
2. C12U G45U
3. G60C A111G
4. C4A G61C
5. G120C G127C
6. G44C G127A U130G

[-5.79, -0.901, -0.122, -3.08, -0.522, -2.95]
